Kindly state protein stability index for each of the entries shown.
B1: FBXO3 (parent)
chain: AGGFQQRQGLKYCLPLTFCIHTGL

Variants of: B1
protocol: protein stability index of a GFP-peptide fusion (GPS, HEK-293T) (PSI 1-6); higher = more stable;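 note: lentivirally expressed fusions sorted by FACS into six bins by GFP to DsRed ratio, PSI derived from sequencing read proportions per bin multiplied by bin number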
experimental-parameters: c terminus: a fixed tail appended
Enter the number alone.

// protein stability index value for `G9T` : 3.85

// protein stability index value for `F18I` : 2.93

// protein stability index value for `L24I` : 2.69

// protein stability index value for `A1K` : 1.87

// protein stability index value for `A1P` : 2.91

// protein stability index value for `P15A` : 2.77

// protein stability index value for `L10V` : 2.85

// protein stability index value for `L16I` : 3.02

// protein stability index value for `A1M` : 3.13

// protein stability index value for `L14Y` : 2.16

// protein stability index value for `G9F` : 2.58
